Tested on: HCV 1a replicon
Test method notes: HCV GT1a replicon assay in Huh-7 cells
Assay type: cell-based, Hepatitis C virus
Condition details: Hepatitis C virus; Huh-7 cells transfected with HCV replicon, 72 hours incubation; read-out: EC50 against HCV 1a genotype
# log10(EC50) per entry
Log scale reminder: EC50 in nM, then log10 taken.

// solved cases for log10(EC50) follow
• COC(=O)N[C@H](C(=O)C1CCCC[C@H]1c1nc2ccc(-c3ccc(-c4ccc(-c5cnc(C6CCCCN6C(=O)[C@@H](NC(=O)OC)C(C)C)[nH]5)cc4)c4c3CC3(CCCC3)C4)cc2c(=O)[nH]1)C(C)C (some centres unmarked) = -1.05
• COC(=O)N[C@H](C(=O)N1CCC[C@H]1c1ncc(-c2ccc(-c3ccc(-c4ccc5nc([C@@H]6CC7CC7N6C(=O)[C@@H](NC(=O)OC)C(C)C)[nH]c(=O)c5c4)c4c3CC3(CCN(C)CC3)C4)cc2)[nH]1)C(C)C (some centres unmarked) = 0.10

State, in one line, measured log10(EC50) of COC(=O)N[C@H](C(=O)N1CCC[C@H]1c1ncc(-c2ccc(-c3ccc(-c4ccc5nc([C@@H]6CC7CC7N6C(=O)[C@@H](NC(=O)OC)C(C)C)[nH]c(=O)c5c4)c4c3CC3(CCCC3)C4)c3cnoc23)[nH]1)C(C)C (some centres unmarked)
0.18

State, in one line, measured log10(EC50) of COC(=O)N[C@H](C(=O)N1CC2(CC2)C[C@H]1c1ncc(-c2ccc(-c3ccc(-c4ccc5nc([C@@H]6CC7(CC7)CN6C(=O)[C@@H](NC(=O)OC)C(C)C)[nH]c(=O)c5c4)c4c3CC3(CCCC3)C4)cc2)[nH]1)C(C)C
-1.10

State, in one line, measured log10(EC50) of COC(=O)N[C@H](C(=O)N1CCC[C@H]1c1ncc(-c2ccc(-c3ncc(-c4ccc5nc([C@@H]6CCCN6C(=O)[C@@H](NC(=O)OC)C(C)C)[nH]c5c4)c4c3CC3(CCCC3)C4)c3ccccc23)[nH]1)C(C)C
0.77

State, in one line, measured log10(EC50) of COC(=O)N[C@H](C(=O)N1CCC[C@H]1c1ncc(-c2ccc(-c3ccc(-c4ccc5nc([C@@H]6CCCN6C(=O)[C@@H](NC(=O)OC)C6CCCCC6)[nH]c(=O)c5c4)c4c3CC3(CCCC3)C4)cc2)[nH]1)C1CCCCC1
-0.69

State, in one line, measured log10(EC50) of COC(=O)NC(C(=O)N1CCC[C@H]1c1ncc(-c2ccc(-c3cc(F)c(-c4ccc5nc([C@@H]6CCCN6C(=O)[C@@H](NC(=O)OC)C(C)C)[nH]c(=O)c5c4)c4c3CC3(CCCC3)C4)nc2)[nH]1)C(C)C (some centres unmarked)
-1.11

State, in one line, measured log10(EC50) of COC(=O)N[C@H](C(=O)N1CCC[C@H]1C1=Nc2cc(-c3ccc(-c4ccc(-c5cnc([C@@H]6CCCN6C(=O)[C@@H](NC(=O)OC)C(C)C)[nH]5)cc4)c4c3CC3(CCCC3)C4)ccc2S(=O)(=O)N1)C(C)C
-1.11

* * *

Test system: HCV 1a replicon
Test method notes: HCV GT1a replicon assay in Huh-7 cells
Format: cell-based, Hepatitis C virus
Condition details: Hepatitis C virus; Huh-7 cells transfected with HCV replicon, 72 hours incubation; read-out: EC50 against HCV 1a genotype
# pEC50 per entry
Conceptually, pEC50 converts a concentration in mol/L into minus its log10.

// solved cases for pEC50 follow
• COC(=O)N[C@H](C(=O)N1CCC[C@H]1c1ncc(-c2ccc(-c3ccc(-c4ccc5nc([C@@H]6CCCN6C(=O)[C@@H](NC(=O)OC)C(C)C)[nH]c(=O)c5c4)c4c3CC3(CCCC3)C4)cc2)[nH]1)C(C)C = 9.12
• COC(=O)N[C@H](C(=O)N1[C@@H]2CC[C@@H](C2)[C@H]1c1ncc(-c2ccc(-c3ccc(-c4ccc5nc([C@@H]6[C@H]7CC[C@H](C7)N6C(=O)[C@@H](NC(=O)OC)C(C)C)[nH]c(=O)c5c4)c4c3CC3(CCCC3)C4)cc2)[nH]1)C(C)C = 9.51

State, in one line, measured pEC50 of COC(=O)N[C@@H](C)C(=O)N1CCC[C@H]1c1ncc(-c2ccc(-c3ccc(-c4ccc5nc([C@@H]6CCCN6C(=O)[C@H](C)NC(=O)OC)[nH]c(=O)c5c4)c4c3CC3(CCCC3)C4)cc2)[nH]1
9.05

State, in one line, measured pEC50 of COC(=O)N[C@H](C(=O)N1CC(C)(C)C[C@H]1c1ncc(-c2ccc(-c3ccc(-c4ccc5nc([C@@H]6CC(C)(C)CN6C(=O)[C@@H](NC(=O)OC)C(C)C)[nH]c(=O)c5c4)c4c3CC3(CCCC3)C4)cc2)[nH]1)C(C)C
9.49
